Measured values drawn from patent US11730720B2 for this set.

Listing of entries alongside the reported IC50.
- Tested on: TGF-β-stimulated SMAD3 phosphorylation in BEAS-2B cells
- Protocol Text: Cellular ALK5 potency assay, inhibition of TGF-β stimulated pSMAD3 formation in BEAS-2B cells
- Assay type: cell-based
- Run Conditions: Homo sapiens, inhibition of TGF-β (10 ng/mL) stimulated pSMAD3 formation, 1 hour compound incubation, read-out: BEAS2B pIC50 (converted)

{"Compound": "Fc1cc(F)c(-c2n[nH]cc2-c2ccc3ncc(N4CC5CNC5C4)cc3n2)cc1Cl (stereo not shown) [Compound 6-33]", "IC50": "0.0251 to 0.158 µM"}
{"Compound": "NC1CCN(c2cnc3ccc(-c4c[nH]nc4-c4ccccc4F)nc3c2)C1 (stereo not shown) [Compound 11-2]", "IC50": "0.0251 to 0.158 µM"}
{"Compound": "COC(=O)[C@H]1CN(c2cnc3ccc(-c4c[nH]nc4-c4cc(Cl)ccc4F)nc3c2)CCN1CCN [Compound 1-134]", "IC50": "0.0251 to 0.158 µM"}
{"Compound": "Fc1ccc(Cl)cc1-c1n[nH]cc1-c1ccc2ncc(-c3cn4c(n3)CNCC4)cc2n1 [Compound 1-116]", "IC50": "0.0251 to 0.158 µM"}
